Molecular target: p53 Y220C (Homo sapiens, UniProt P04637, Y220C)
Assay: Luciferase Reporter Assay (Luc), p53 response element, NClH1299 cells with inducible p53 Y220C
Assay type: cell-based
Details: AC50; luciferase reporter, NClH1299 inducible p53 Y220C, 6 hour; read-out: Luc P53 Y220C AC50
measurement.kind: AC50

Consider the worked cases shown below.
INSERT INTO assay_data (chemical_structure, study_target, measurement_kind, measured_result) VALUES
  ('COc1cc2c(cc1NCC#Cc1cc3c(N[C@@H]4CCN(C)C[C@@H]4F)cccn3c1SC(F)(F)F)CNC2=O', 'p53 Y220C (Homo sapiens, UniProt P04637, Y220C)', 'AC50', '< 750 nM'),
  ('CNC(=O)c1ccc(NCC#Cc2nc3c(N[C@@H]4CN(C)C[C@@H]4F)nccn3c2SC(F)(F)F)c(OC)c1', 'p53 Y220C (Homo sapiens, UniProt P04637, Y220C)', 'AC50', '750 to 1500 nM'),
  ('CN1CC[C@@H](Nc2cccn3c(SC(F)(F)F)c(C#CCNc4ccc(C(=O)NC[C@@H]5CCO5)cc4)cc23)[C@@H](F)C1', 'p53 Y220C (Homo sapiens, UniProt P04637, Y220C)', 'AC50', '< 750 nM');

Here is another molecule to look at.
Any idea what its AC50 is? The molecule is CNC(=O)c1ccc(OC)c(NCC#Cc2cc3c(N[C@@H]4CCN(C5COC5)C[C@@H]4F)nccn3c2SC(F)(F)F)c1
< 750 nM

###

Molecular target: p53 Y220C (Homo sapiens, UniProt P04637, Y220C)
Assay: Luciferase Reporter Assay (Luc), p53 response element, NClH1299 cells with inducible p53 Y220C
Assay type: cell-based
Conditions: AC50; luciferase reporter, NClH1299 inducible p53 Y220C, 6 hour; read-out: Luc P53 Y220C AC50
measurement.kind: AC50

Some solved entries appear below for comparison.
INSERT INTO results (compound, measurement_kind, measured_result) VALUES
  ('CNC(=O)c1cnc(OC)c(NCC#Cc2nn3c(N[C@@H]4CCN(C)C[C@@H]4F)cccc3c2SC(F)(F)F)c1 [Example 260]', 'AC50', '< 750 nM'),
  ('CNC(=O)c1ccc(C#N)c(NCC#Cc2nc3c(N[C@@H]4CCN(C)C[C@@H]4F)cccn3c2SC(F)(F)F)c1 [Example 224]', 'AC50', '< 750 nM'),
  ('COc1cc(C(=O)NCC2CN(C)C2)ccc1NCC#Cc1nc2c(N[C@@H]3CCOC[C@@H]3F)cccn2c1SC(F)(F)F [Example 227]', 'AC50', '> 3000 nM'),
  ('O=C(NC[C@@H]1CCO1)c1ccc(NCC#Cc2cc3c(N[C@@H]4CCNC[C@@H]4F)cccn3c2SC(F)(F)F)cc1 [Example 368]', 'AC50', '< 750 nM'),
  ('CN1CC[C@@H](Nc2cccn3c(SC(F)(F)F)c(C#CCNc4ccc(P(C)(C)=O)c5ccoc45)cc23)[C@@H](F)C1 [Example 452]', 'AC50', '< 750 nM');

Entry CNC(=O)c1ccc(NCC#Cc2cc3c(N[C@@H]4CCN(C)C[C@@H]4F)nccn3c2SC(F)(F)F)c(O)c1 [Example 446] : reported AC50 = ?
< 750 nM

Any idea what AC50 was measured for CN1CCO[C@@H](CNC(=O)c2ccc(NCC#Cc3cc4c(N[C@@H]5CCN(C)C[C@@H]5F)cccn4c3SC(F)(F)F)cc2)C1 [Example 380] ?
< 750 nM

Can you look up the measured AC50 of CNC(=O)c1cnc(OC)c(NCC#Cc2nc3c(N[C@@H]4CCNC[C@@H]4F)cccn3c2SC(F)(F)F)c1 [Example 258] for me?
< 750 nM

Using the record for CNS(=O)(=O)c1ccc(OC)c(NCC#Cc2cc3c(N[C@@H]4CCN(C)C[C@@H]4F)nccn3c2SC(F)F)c1 [Example 334] , report its AC50.
> 3000 nM

Record request: AC50 value, item CN1CC[C@@H](Nc2cccn3c(SC(F)(F)F)c(C#CCNc4ccc(C(=O)NC[C@H]5COCCO5)cc4)cc23)[C@@H](F)C1 [Example 407]
< 750 nM

# get_value(readout='AC50', item= CN1CC[C@@H](Nc2cccn3c(SC(F)(F)F)c(C#CCNc4ccc(P(C)(C)=O)cn4)cc23)[C@@H](F)C1 [Example 428] )
< 750 nM

What measured AC50 goes with CNC(=O)c1ccc(O[C@H]2C[C@@H](O)C2)c(NCC#Cc2cc3c(N[C@@H]4CCN(C)C[C@@H]4F)cccn3c2SC(F)(F)F)c1 [Example 413] ?
< 750 nM

// AC50 lookup, key: CNC(=O)c1ccc(OC)c(NCC#Cc2nn3c(N[C@@H]4CCN(C)C[C@@H]4F)cccc3c2SC(F)(F)F)c1 [Example 231]
< 750 nM

###

The reader will find reported pIC50 values listed item by item below.
System: H1299 p53 Y220C
Assay: Cell Proliferation Assay (CellTiter-Glo, CTG), H1299 p53 Y220C (NClH1299-inducible p53 Y220C)
Assay type: cell-based
Settings: Homo sapiens, NCI-H1299, 120 h, CellTiter-Glo, H1299 p53 Y220C, 5 days
pIC50: −log10 of the molar value.

Here's what some known entries look like.
INSERT INTO results (chemical_structure, measurement_kind, measured_result) VALUES
  ('CNC(=O)c1ccc(NCC#Cc2nc3c(N[C@@H]4CCN(C)C[C@@H]4F)cccn3c2CC(F)(F)F)c(OC(F)F)c1', 'pIC50', '5.52 to 5.82'),
  ('CNC(=O)c1ccc(NCC#Cc2nc3c(N[C@@H]4CCNC[C@@H]4F)cccn3c2SC(F)(F)F)c(OC)c1', 'pIC50', '> 6.12'),
  ('CNC(=O)c1ccc(NCC#Cc2nn3c(N[C@@H]4CCN(C)C[C@@H]4F)nccc3c2SC(F)(F)F)c(OC)c1', 'pIC50', '> 6.12');

Now turn to the next compound.
Can you look up the measured pIC50 of CNC(=O)c1ccc(OC)c(NCC#Cc2cc3c(N[C@@H]4CNC[C@@H]4F)nccn3c2SC(F)(F)F)n1 for me?
5.82 to 6.12

###

Molecular target: p53 Y220C (Homo sapiens, UniProt P04637, Y220C)
Test: Luciferase Reporter Assay (Luc), p53 response element, NClH1299 cells with inducible p53 Y220C
Format: cell-based
Settings: luciferase reporter, NClH1299 inducible p53 Y220C, 6 hour; read-out: Luc P53 Y220C AC50
Experimental: Luciferase Reporter Assay Protocol The cells were then used for p53 reporter assay. 5,000 cells were seeded in each well of 384 plate and cultured in 0.5 ug/mL doxycycline (D3072; Sigma) containing medium for 24 hours before compound treatment. […] The luciferase activity was immediately measured with PheraStar microplate reader.
Structures can show the parent of a compound that is named as a salt.
AC50: recorded values

# example entries with known answers
INSERT INTO measurements (molecule, study_target, measured_result) VALUES
  ('CNC(=O)c1ccc(NCC#Cc2nn3c(N[C@@H]4CCN(C)C[C@@H]4F)nccc3c2SC(F)F)c(OC)c1', 'p53 Y220C (Homo sapiens, UniProt P04637, Y220C)', '< 750 nM'),
  ('CNC(=O)c1ccc(NCC#Cc2nc3c(N[C@@H]4CN(C)C[C@@H]4F)cccn3c2SC(F)(F)F)c(OC)c1', 'p53 Y220C (Homo sapiens, UniProt P04637, Y220C)', '< 750 nM'),
  ('COc1cc2c(cc1NCC#Cc1nc3c(N[C@@H]4CCN(C)C[C@@H]4F)cccn3c1CC(F)(F)F)CCNC2=O', 'p53 Y220C (Homo sapiens, UniProt P04637, Y220C)', '< 750 nM'),
  ('COc1cc(C(=O)N2CCOCC2)ccc1NCC#Cc1nc2c(N[C@@H]3CCN(C)C[C@@H]3F)cccn2c1SC(F)(F)F', 'p53 Y220C (Homo sapiens, UniProt P04637, Y220C)', '< 750 nM'),
  ('CCc1c(C#CCNc2ccc(S(C)(=O)=O)cc2OC)nc2c(N[C@@H]3CCN(C)C[C@@H]3F)cccn12', 'p53 Y220C (Homo sapiens, UniProt P04637, Y220C)', '1500 to 3000 nM'),
  ('CNC(=O)c1ccc(OC)c(NCC#Cc2nc3c(N[C@@H]4CCNC[C@@H]4F)cccn3c2CC(F)(F)F)c1', 'p53 Y220C (Homo sapiens, UniProt P04637, Y220C)', '> 3000 nM');

Give AC50 (p53 Y220C (Homo sapiens, UniProt P04637, Y220C)) of the following molecule: CNC(=O)c1ccnc(NCC#Cc2nc3c(N[C@@H]4CCN(C)C[C@@H]4F)cccn3c2SC(F)(F)F)c1
> 3000 nM

What measured AC50 is associated with COc1ccc(S(C)(=O)=O)cc1NCC#Cc1nc2c(N[C@@H]3CCN(C)C[C@@H]3F)cccn2c1SC(F)(F)F on p53 Y220C (Homo sapiens, UniProt P04637, Y220C)?
1500 to 3000 nM

Missing value: AC50, p53 Y220C (Homo sapiens, UniProt P04637, Y220C), entry CNC(=O)c1ccc(NCC#Cc2cc3c(N[C@@H]4CCN(C)C[C@@H]4F)nccn3c2SC(F)F)c(OC)c1 . Fill in?
< 750 nM

Item CNC(=O)c1ccc(NCC#Cc2nc3c(N[C@@H]4CCN(C)C[C@@H]4F)cccn3c2SC(F)(F)F)c(OC)c1 [Example 28, formic acid salt] with p53 Y220C (Homo sapiens, UniProt P04637, Y220C) - AC50?
< 750 nM

AC50 of CNC(=O)c1ccc(NCC#Cc2nc3c(N[C@@H]4CCN(C)C[C@@H]4F)cccn3c2CC(F)(F)F)cn1 on p53 Y220C (Homo sapiens, UniProt P04637, Y220C)?
> 3000 nM

Recorded AC50 for CNC(=O)c1ccc(NCC#Cc2nc3c(NCC4(F)CN(C)C4)cccn3c2SC(F)(F)F)c(OC)c1 with p53 Y220C (Homo sapiens, UniProt P04637, Y220C), please?
1500 to 3000 nM

Requested read-out AC50, target or system p53 Y220C (Homo sapiens, UniProt P04637, Y220C), entry CNC(=O)c1ccc(NCC#Cc2nc3c(N[C@@H]4CCN(C)C[C@@H]4F)cccn3c2CC(F)(F)F)c(OC(F)F)c1
> 3000 nM

For p53 Y220C (Homo sapiens, UniProt P04637, Y220C), provide AC50 of CNc1cc(NC2CCN(C)CC2)c2nc(C#CCNc3ccc(S(C)(=O)=O)cc3OC)c(CC(F)(F)F)n2c1 please.
> 3000 nM
